Target: T1, human Flag-tagged soluble TWEAK (amino acids 106-249) (human, UniProt O43508 106-249)
T1 construct: the tag is put first here only by convention; also called Human TWEAK; not shown: Flag tag
T1 sequence (looked up): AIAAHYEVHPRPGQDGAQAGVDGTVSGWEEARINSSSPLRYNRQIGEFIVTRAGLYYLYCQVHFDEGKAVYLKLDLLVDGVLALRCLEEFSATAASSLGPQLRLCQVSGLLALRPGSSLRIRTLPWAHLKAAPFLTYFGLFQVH
Experiment: receptor interaction ELISA: antibody pre-incubated with human Flag-tagged soluble TWEAK, binding to coated human Fn14:Fc
readoutLabel: IC50 (µg/mL)

[[record]]
binder = "Antibody 23 (antibody, V domains shown) VH: QVQLQESGPGLVKPSETLSLTCTVSGYSIRSGYWWSWIRQPPGKGLEWIGQIYNKGNTDNNPALKSRVTISVDTSKNQFSLKLSSVTAADTAVYYCARVFWDDAYFDVWGQGTMVTVSS VL: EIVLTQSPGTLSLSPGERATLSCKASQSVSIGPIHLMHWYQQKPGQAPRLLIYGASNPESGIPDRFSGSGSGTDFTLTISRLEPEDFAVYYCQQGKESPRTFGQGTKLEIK"
result = 0.013

[[record]]
binder = "Antibody 26 (antibody, V domains shown) VH: QVQLQESGPGLVKPSETLSLTCAVSGYSIRSGYWWSWIRQQPGKGLEWIGQIYNKGNTDNSPSLKSQVTISVDTSKNQFSLKLSSVTAADTAVYYCARVFWDDAYFDVWGQGTMVTVSS VL: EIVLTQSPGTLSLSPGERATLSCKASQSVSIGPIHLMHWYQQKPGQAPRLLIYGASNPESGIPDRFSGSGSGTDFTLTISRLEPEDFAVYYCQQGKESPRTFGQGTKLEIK"
result = 0.094

[[record]]
binder = "Antibody 20 (antibody, V domains shown) VH: QVQLQESGPGLVKPSETLSLTCAVSGYSIRSGYWWSWIRQQPGKGLEWIGQIYNKGNTDNSPSLKSQVTISVDTSKNQFSLKLSSVTAADTAVYYCARVFWDDAYFDVWGQGTMVTVSS VL: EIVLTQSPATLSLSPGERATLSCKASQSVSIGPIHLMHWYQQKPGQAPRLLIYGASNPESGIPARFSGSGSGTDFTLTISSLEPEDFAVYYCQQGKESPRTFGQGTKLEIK"
result = 0.035


Where these numbers come from: patent US20100255008A1
